target: BRDT-1 (Homo sapiens); assay: biochemical; format: binding; conditions: IC50 (μM) BRDT-1, Alpha Screen, KAc-histone H4 peptide (K5/8/12/16Ac)
TEST_READOUT: IC50 (µM)

{"columns": ["COMPOUND", "QUALIFIER_SIGN", "ENDPOINT_VALUE"],
 "data": [
  ["COc1cc(Nc2nccc(Nc3ccc4c(C)n[nH]c4c3)n2)cc(OC)c1OC [GW612286X]", "=", 7.6],
  ["COc1cc(Nc2ncc(F)c(Nc3ccc4c(n3)N(COP(=O)(O)O)C(=O)C(C)(C)O4)n2)cc(OC)c1OC", ">", 20]
]}
